Every entry's value here was drawn from ChEMBL document CHEMBL1177682.

Provide the reported Ratio IC50 of each item.
Test system: HT-29
experiment.notes: Hypoxic cytotoxicity ratio IC50 for human HT-29 cells under aerobic condition to IC50 for human HT-29 cells under hypoxic condition
Type: functional
Lab note: jot down the number only; don't add units.

Ratio IC50 for CN(C)CCOc1ccc2[nH]c(C(=O)N3CC(CCl)c4c3cc([N+](=O)[O-])c3cc(S(=O)(=O)N(C)C)ccc43)cc2c1 (centres undefined) ?
3.6

Then this compound: CN(C)CCOc1ccc2[nH]c(C(=O)N3CC(CCl)c4c3cc([N+](=O)[O-])c3cc(N)ccc43)cc2c1 (centres undefined)
2.4

And what about the compound CN(C)CCNS(=O)(=O)c1ccc2c3c(cc([N+](=O)[O-])c2c1)N(C(=O)c1cc2cc(OCCN(C)C)ccc2[nH]1)CC3CCl (centres undefined) ?
110

And then CN(C)CCOc1ccc2[nH]c(C(=O)N3CC(CCl)c4c3cc([N+](=O)[O-])c3cc(S(=O)(=O)NN)ccc43)cc2c1 (centres undefined) , what is it?
220

* * *

experiment.notes: Plasma concentration in CD1 mouse at 23.7 umol/kg, iv after 15 mins
Type: ADME, organism-based
measured.attribute: concentration at […]

If you can, please state the reported concentration at […] value of CN(C)CCNS(=O)(=O)c1ccc2c3c(cc([N+](=O)[O-])c2c1)N(C(=O)c1cc2cc(OCCN(C)C)ccc2[nH]1)CC3CCl (stereo unspecified) .
< 10 nM

* * *

For each of the molecules below, state its IC50.
Tested on: SK-OV-3
experiment.notes: Cytotoxicity against human SKOV3 cells under hypoxic condition after 5 days by SRB assay
Assay type: functional, cell-based
condition.details: SK-OV-3, 120 h

Return IC50 measured with SK-OV-3 given this molecule: CNS(=O)(=O)c1ccc2c3c(cc(N)c2c1)N(C(=O)c1cc2cc(OCCN(C)C)ccc2[nH]1)CC3CCl (centres undefined)
11 nM

Same question, CN(C)CCOc1ccc2[nH]c(C(=O)N3CC(CCl)c4c3cc([N+](=O)[O-])c3cc(S(N)(=O)=O)ccc43)cc2c1 (centres undefined) this time
28 nM

Request: CN(C)CCNS(=O)(=O)c1ccc2c3c(cc([N+](=O)[O-])c2c1)N(C(=O)c1cc2cc(OCCN(C)C)ccc2[nH]1)CC3CCl (centres undefined)
6.6 nM

Similarly, COc1cc2cc(C(=O)N3CC(CCl)c4c3cc([N+](=O)[O-])c3ccc(C(=O)NCCN(C)C)cc43)[nH]c2c(OC)c1OC (centres undefined) ?
180 nM

* * *

experiment.notes: AUC (0 to 180 mins) in CD1 mouse at 23.7 umol/kg, iv
Assay type: ADME, organism-based
Parameters: time < 3 hr, dose 23.7 umol/kg, route intravenous
condition.details: plasma
measured.attribute: AUC(0-t) at 3 h

What value of measured AUC(0-t) at 3 h is listed for CN(C)CCNS(=O)(=O)c1ccc2c3c(cc([N+](=O)[O-])c2c1)N(C(=O)c1cc2cc(OCCN(C)C)ccc2[nH]1)CC3CCl (stereo unspecified) ?
< 0.03 µM·h

* * *

Tested on: HT-29
experiment.notes: Cytotoxicity against human HT-29 cells under aerobic condition after 5 days by SRB assay
Type: functional, cell-based
condition.details: HT-29, 120 h
Provide the recorded IC50 for the entries that follow.
Express your answer as a number followed by its unit.

Query: IC50; subject: COc1cc2cc(C(=O)N3CC(CCl)c4c3cc([N+](=O)[O-])c3ccc(C(=O)NCCN(C)C)cc43)[nH]c2c(OC)c1OC (stereo not drawn)
1300 nM

Again, but for CN(C)CCNS(=O)(=O)c1ccc2c3c(cc([N+](=O)[O-])c2c1)N(C(=O)c1cc2cc(OCCN(C)C)ccc2[nH]1)CC3CCl (stereo not drawn)
730 nM

Ok, now CN(C)CCOc1ccc2[nH]c(C(=O)N3CC(CCl)c4c3cc([N+](=O)[O-])c3cc(N)ccc43)cc2c1 (stereo not drawn)
1800 nM
